Test system: MOLP-8
Test: cells
Details: Homo sapiens, MOLP-8, 48 h
Description: Antiproliferative activity against human MOLP8 cells assessed as inhibition of cell proliferation incubated for 48 hrs by CellTiter Glo luminescence based MTT assay
value-kind: IC50 (µM)

- COC(=O)c1ccccc1SCC1CCC(=O)NC1=O (stereo unspecified): 19.8
- Nc1ccccc1SCC1CCC(=O)NC1=O (stereo unspecified): 32.3
- O=C1CCC(CSc2ccccc2)C(=O)N1 (stereo unspecified): 40
- Nc1cccc(SCC2CCC(=O)NC2=O)c1 (stereo unspecified): 41.2

###

List of pIC50 values.
Test system: MOLP-8
Assay: cells
Conditions: Homo sapiens, MOLP-8, 48 h
pIC50: −log10 of the molar value.
value-kind: pIC50

• Cc1ccc(SCC2CCC(=O)NC2=O)cc1 (configuration not stated) = 4.42
• CN1C(=O)CCC(CSc2ccc(Cl)cc2)C1=O (configuration not stated) = 4.09
• CC(=O)Nc1ccccc1SCC1CCC(=O)NC1=O (configuration not stated) = 4.56
• Cc1ccc(S(=O)(=O)CC2CCC(=O)NC2=O)cc1 (configuration not stated) = 5.28
• Nc1ccc(SCC2CCC(=O)NC2=O)cc1 (configuration not stated) = 4.35
• O=C1CCC(CSc2ccccc2[N+](=O)[O-])C(=O)N1 (configuration not stated) = 4.89
• O=C1CCC(CSc2ccc([N+](=O)[O-])cc2)C(=O)N1 (configuration not stated) = 5.07
• Cc1cc(C)c(SCC2CCC(=O)NC2=O)c(C)c1 (configuration not stated) = 4.68
• CC(=O)Nc1ccc(SCC2CCC(=O)NC2=O)cc1 (configuration not stated) = 4.42
• O=C1CCC(CS(=O)(=O)c2ccc(F)cc2)C(=O)N1 (configuration not stated) = 5.24
• COc1ccc(CSCC2CCC(=O)NC2=O)cc1 (configuration not stated) = 4.14
• Cc1ccnc(SCC2CCC(=O)NC2=O)n1 (configuration not stated) = 4.92
• O=C1CCC(CSc2cccc([N+](=O)[O-])c2)C(=O)N1 (configuration not stated) = 4.80
• O=C1CCC(CSc2ccc(Br)cc2)C(=O)N1 (configuration not stated) = 4.74
• COc1ccc(CS(=O)(=O)CC2CCC(=O)NC2=O)cc1 (configuration not stated) = 5.20
• O=C1CCC(CSc2ccccn2)C(=O)N1 (configuration not stated) = 4.56
• O=C1CCC(CS(=O)(=O)c2ccccc2)C(=O)N1 (configuration not stated) = 5.24
• O=C1CCC(CS(=O)(=O)c2ccc(Cl)cc2)C(=O)N1 (configuration not stated) = 5.17
• O=C1CCC(CSc2ncccn2)C(=O)N1 (configuration not stated) = 4.62
• CN1C(=O)CCC(CSc2ccccc2)C1=O (configuration not stated) = 4.07
• CC(=O)Nc1cccc(SCC2CCC(=O)NC2=O)c1 (configuration not stated) = 4.31
• O=C1CCC(CSc2ccc(F)cc2)C(=O)N1 (configuration not stated) = 4.49
• O=C1CCC(CSc2ccc(Cl)cc2)C(=O)N1 (configuration not stated) = 4.69
• O=C1CCC(CS(=O)(=O)Cc2ccccc2)C(=O)N1 (configuration not stated) = 5.26

###

System: MOLP-8
Assay: cells
Details: Homo sapiens, MOLP-8, 48 h
pIC50: −log10 of the molar value.
List of pIC50 values.
value-kind: pIC50

* Cn1cnnc1SCC1CCC(=O)NC1=O (stereo not drawn) | < 4.00
* O=C1CCC(CSc2ccccc2C(=O)O)C(=O)N1 (stereo not drawn) | < 4.00
* O=C1CCC(N2C(=O)c3ccccc3C2=O)C(=O)N1 (stereo not drawn) [THALIDOMIDE] | < 4.12
